- System: A549-ACE2
- testSummary: drug-induced phospholipidosis relative to tamoxifen; higher = more phospholipidosis
- conditionDescription: 0.833333 µM; 72 h
drug-induced phospholipidosis values by entry
readoutType: drug-induced phospholipidosis (%)

| molecule | readoutType | experimentalResult |
| --- | --- | --- |
| CCCCCCCCNC(C)C(O)c1ccc(SC(C)C)cc1 (centres undefined) [suloctidil] | drug-induced phospholipidosis | -1.43 |
| Cc1nc(Nc2ccc(F)cc2)nc(N2CCc3ccccc3C2C)c1C (centres undefined) [revaprazan] | drug-induced phospholipidosis | -0.285 |
| CNC(=O)c1ccccc1Sc1ccc2c(/C=C/c3ccccn3)n[nH]c2c1 [axitinib] | drug-induced phospholipidosis | 4.58 |
| Cc1[nH]c(/C=C2\C(=O)Nc3ccc(S(=O)(=O)N(C)c4cccc(Cl)c4)cc32)c(C)c1C(=O)N1CCN(C)CC1 | drug-induced phospholipidosis | 20.7 |
| O=c1[nH]c2ccccc2n1C1CCN(CCCC(c2ccc(F)cc2)c2ccc(F)cc2)CC1 [pimozide] | drug-induced phospholipidosis | 6.94 |
| CCN1CCC(n2cc(CNc3cc(Cl)c4ncc(C#N)c(Nc5ccc(F)c(Cl)c5)c4c3)nn2)CC1 [cot-inhibitor-2] | drug-induced phospholipidosis | -0.868 |
| OC(CCN1CCCCC1)(c1ccccc1)C1CC2C=CC1C2 (centres undefined) [biperiden] | drug-induced phospholipidosis | 0.683 |
| COc1ccc(NC(=O)c2ccc(-c3ccc(-c4noc(C)n4)cc3C)cc2)cc1N1CCN(C)CC1 | drug-induced phospholipidosis | 12.8 |
| CN1CCCCC1Cn1cc(C(=O)c2cc([N+](=O)[O-])ccc2I)c2ccccc21 (centres undefined) [AM-1241] | drug-induced phospholipidosis | -4.89 |

---

- Tested on: U2OS
- testSummary: cell viability relative to DMSO; higher = less toxic
- conditionDescription: 72 h; 1 nM
cell viability values by entry
readoutType: cell viability (%)

| compound | readoutType | unit | experimentalResult |
| --- | --- | --- | --- |
| COc1ccc(CNC(=O)/C=C/c2ccc3[nH]cc(CCN(C)C)c3c2)cc1 | cell viability | % | 102 |
| CNCC[C@@H](Oc1ccccc1C)c1ccccc1 [atomoxetine] | cell viability | % | 106 |
| CC(=O)c1c(O)cc(C)oc1=O [dehydroacetic-acid] | cell viability | % | 99.2 |
| CCCCCCCCCCCCCC(=O)[O-].CCCCCCCCCCCCCC(=O)[O-].N[C@@H]1CCCC[C@H]1N.[Pt+2] [miriplatin] | cell viability | % | 100 |
| O=S(=O)(/N=C/c1c(O)ccc2ccccc12)c1cccs1 | cell viability | % | 103 |
| COc1ccc(OC)c([C@@H](O)CNC(=O)CN)c1 [midodrine] | cell viability | % | 99.1 |
| CN1CCN(C(c2ccccc2)c2ccc(Cl)cc2)CC1 (centres undefined) [chlorcyclizine] | cell viability | % | 93.8 |
| O=C(O)c1cccnc1Nc1cccc(C(F)(F)F)c1 [niflumic-acid] | cell viability | % | 99.7 |
| CC[C@@H]1C(=O)N(C)c2cnc(Nc3ccc(C(=O)NC4CCN(C)CC4)cc3OC)nc2N1C1CCCC1 [BI-2536] | cell viability | % | 97 |

---

cell viability values by entry
- System: U2OS
- testSummary: cell viability relative to DMSO; higher = less toxic
- conditionDescription: 72 h; 10 nM
Structures can show the parent of a compound that is named as a salt.
readoutType: cell viability (%)

| compound | targetEntity | readoutType | experimentalResult |
| --- | --- | --- | --- |
| CCCC[C@@]1(C2CCCC2)Cc2cc(OCCCC(=O)O)c(Cl)c(Cl)c2C1=O [DCPIB] | U2OS | cell viability | 90.4 |
| CN[C@H](CC(C)C)C(=O)N[C@H]1C(=O)N[C@@H](CC(N)=O)C(=O)N[C@H]2C(=O)N[C@H]3C(=O)N[C@H](C(=O)N[C@H](C(=O)O)c4cc(O)cc(O)c4-c4cc3ccc4O)[C@H](O)c3ccc(c(Cl)c3)Oc3cc2cc(c3O[C@@H]2O[C@H](CO)[C@@H](O)[C@H](O)[C@H]2O[C@H]2C[C@](C)(N)[C@H](O)[C@H](C)O2)Oc2ccc(cc2Cl)[C@H]1O [VANCOMYCIN HYDROCHLORIDE] | U2OS | cell viability | 95.6 |
| CC1(C)S[C@@H]2[C@H](NC(=O)COc3ccccc3)C(=O)N2[C@H]1C(=O)O [penicillin-v-potassium] | U2OS | cell viability | 96.4 |
| C[C@H](NCc1ccc(OCc2cccc(F)c2)cc1)C(N)=O [safinamide] | U2OS | cell viability | 102 |
| CCN(Cc1ccncc1)C(=O)C(CO)c1ccccc1 (centres undefined) [tropicamide] | U2OS | cell viability | 98.8 |
| CCC(=O)N1CCOc2c(cc(-c3ccc(OC)c(OC)c3)cc2OC[C@H]2CCCN(C)C2)C1 [I-CBP-112] | U2OS | cell viability | 92 |
| O=S(=O)(NCC1CC1)c1ccc(Nc2nccc(N3CCCc4cc(O)ccc43)n2)cc1 [pyrintegrin] | U2OS | cell viability | 97 |
| CCCOC(=O)c1ccc(O)cc1 [propyl 4-hydroxybenzoate] | U2OS | cell viability | 97.1 |
| C=C[C@@]1(C)CC(=O)[C@]2(O)[C@@]3(C)[C@@H](O)CCC(C)(C)[C@@H]3[C@H](OC(=O)CCN(C)C)[C@H](OC(C)=O)[C@@]2(C)O1 [colforsin-daproate] | U2OS | cell viability | 103 |
| [O-][S+](c1ccccc1)c1ccc2nnnn2n1 (centres undefined) [Ro-106-9920] | U2OS | cell viability | 103 |
| CC(CCc1ccccc1)NC(C)C(O)c1ccc(O)cc1 (centres undefined) [buphenine] | U2OS | cell viability | 100 |
| Cc1c(CN2CCN(C(=O)[C@H](C)O)CC2)sc2c(N3CCOCC3)nc(-c3cnc(N)nc3)nc12 [GDC-0980] | U2OS | cell viability | 98 |
| CCCCCCCCNC(C)C(O)c1ccc(SC(C)C)cc1 (centres undefined) [suloctidil] | U2OS | cell viability | 95 |
| CCCCCCCCCCCCCC(=O)[O-].CCCCCCCCCCCCCC(=O)[O-].N[C@@H]1CCCC[C@H]1N.[Pt+2] [miriplatin] | U2OS | cell viability | 97.7 |
| O=C(/C=C/c1ccc2ccc(C(F)(F)F)cc2n1)c1ccncc1 [PFK-158] | U2OS | cell viability | 100 |
| C[N+]1(C)CCCC(OC(=O)C(O)(c2ccccc2)c2ccccc2)C1 (centres undefined) [mepenzolate] | U2OS | cell viability | 101 |
| COC(=O)N[C@H](C(=O)N1CCC[C@H]1C(=O)Nc1ccc([C@@H]2CC[C@@H](c3ccc(NC(=O)[C@@H]4CCCN4C(=O)[C@@H](NC(=O)OC)C(C)C)cc3)N2c2ccc(C(C)(C)C)cc2)cc1)C(C)C [ombitasvir] | U2OS | cell viability | 95.1 |
| CNC(=O)[C@H](Cc1c[nH]c2ccccc12)NC(=O)[C@@H](CC(=O)NO)CC(C)C [ilomastat] | U2OS | cell viability | 98.2 |
| O=C(CCCCCCC(=O)Nc1ccccc1)NO [vorinostat] | U2OS | cell viability | 96.3 |
| C[C@]12C=CC(=O)C=C1CC[C@@H]1[C@@H]2C(=O)C[C@@]2(C)[C@H]1CC[C@]2(O)C(=O)CO [prednisone] | U2OS | cell viability | 99.2 |
| COCCOC(=O)C1=C(C)NC(C)=C(C(=O)OC(C)C)C1c1cccc([N+](=O)[O-])c1 (centres undefined) [nimodipine] | U2OS | cell viability | 97.8 |
| Cc1noc(NS(=O)(=O)c2ccc(N)cc2)c1C [sulfafurazole] | U2OS | cell viability | 96.5 |
| CC1=C(C(=O)O)N2C(=O)[C@@H](NC(=O)[C@H](N)C3=CCC=CC3)[C@H]2SC1 [cephradine] | U2OS | cell viability | 99.7 |
| Cc1cnc(Nc2ccc(OCCN3CCCC3)cc2)nc1Nc1cccc(S(=O)(=O)NC(C)(C)C)c1 [fedratinib] | U2OS | cell viability | 97.4 |
| Cn1cnnc1Sc1c([N+](=O)[O-])ncn1C [MNITMT] | U2OS | cell viability | 97.7 |
| CN1[C@@H]2CC[C@H]1C[C@@H](OC(=O)N1Cc3ccccc3NC1=O)C2 [DAU-5884] | U2OS | cell viability | 102 |
| NCCc1ccc(O)c(O)c1 [dopamine] | U2OS | cell viability | 96.6 |
| COc1ccc2c3c1O[C@H]1C[C@@H](O)C=C[C@@]31CCN(C)C2 [galantamine] | U2OS | cell viability | 95.4 |
| NC(=O)N1c2ccccc2C=Cc2ccccc21 [carbamazepine] | U2OS | cell viability | 97.2 |
